Test: Plasmatic half-life / degradation by plasmatic protease
Assay type: in vitro ADME
Settings: plasma, Table 1
Square brackets hold non-standard residues; d marks the D form. Peptide text beside a SMILES is read from it. PEG8 = NCCOCCOCCOCCOCCOCCOCCOCCOCCC(=O)O
MEASURE: half-life (min)
Numeric only. Scale: min

### Prompt Would you mind telling me what half-life value was observed for CC(=O)NCCOCCOCCOCCOCCOCCOCCOCCOCCC(=O)N[C@@H](CC(C)C)C(=O)N[C@@H](CC(C)C)C(=O)N[C@@H](CC(C)C)C(=O)N[C@@H](CC(C)C)C(=O)N[C@@H](CCCNC(=N)N)C(=O)N[C@H](C(=O)N[C@@H](CCCCN)C(=O)N[C@@H](CCCNC(=N)N)C(N)=O)C(C)C [[H2N-PEG8]-ML, Ac-[HN-PEG8]-LLLLRVKR-NH2] (Ac-[PEG8]LLLLRVKR-NH2) ?
### Response 78

---

Target: furin (Homo sapiens, UniProt P09958)
Sequence (P09958 108-794): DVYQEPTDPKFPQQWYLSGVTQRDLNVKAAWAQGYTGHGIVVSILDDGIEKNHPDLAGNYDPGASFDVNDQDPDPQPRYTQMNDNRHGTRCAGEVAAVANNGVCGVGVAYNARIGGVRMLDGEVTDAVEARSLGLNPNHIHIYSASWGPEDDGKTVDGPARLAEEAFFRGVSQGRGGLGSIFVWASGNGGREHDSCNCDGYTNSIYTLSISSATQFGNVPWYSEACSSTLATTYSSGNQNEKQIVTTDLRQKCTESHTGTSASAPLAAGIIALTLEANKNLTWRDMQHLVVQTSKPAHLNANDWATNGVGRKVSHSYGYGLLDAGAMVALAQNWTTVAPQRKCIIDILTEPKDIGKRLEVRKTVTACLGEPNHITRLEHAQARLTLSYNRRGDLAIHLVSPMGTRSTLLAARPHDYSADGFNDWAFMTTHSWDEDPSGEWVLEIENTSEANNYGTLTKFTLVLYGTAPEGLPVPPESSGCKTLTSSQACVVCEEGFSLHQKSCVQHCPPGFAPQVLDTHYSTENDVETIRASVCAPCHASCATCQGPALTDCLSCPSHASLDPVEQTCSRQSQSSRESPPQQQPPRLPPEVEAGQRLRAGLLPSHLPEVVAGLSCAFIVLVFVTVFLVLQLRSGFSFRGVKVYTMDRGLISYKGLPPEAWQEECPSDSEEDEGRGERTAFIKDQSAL
Assay: Inhibition constant (Ki) for furin
Assay type: biochemical
MEASURE: pKi
// pKi is dimensionless: -log10 of concentration (M)

### Prompt Quick check: pKi on furin (Homo sapiens, UniProt P09958), item Ac-LLLLRVKR-NH2 [Multi-Leu (ML), Ac-LLLLRVKR-NH2, reference compound] ?
### Response 6.14

---

Consider the following molecules and their measured half-life readings.
Test: Plasmatic half-life / degradation by plasmatic protease
Assay type: in vitro ADME
Conditions: plasma, Table 1
Numbered stars: 1 amine (or outer) side, 2 acyl side, 3 side chain; on linkers, the order of the positions; unused ones are H or OH. Square brackets hold non-standard residues; d marks the D form. Peptide text beside a SMILES is read from it. * marks the point of attachment. X3 = CC(C)C[C@H](N[*:1])c1cn([C@@H](CC(C)C)C(=O)[*:2])nn1; NH(4-amidinobenzyl) = N=C(N)c1ccc(CN*)cc1; X1 = CC(C)CN(CC(=O)[*:2])N[*:1]; X4 = N=C(N)NCCCN(CC(N)=O)N*; X2 = N=C(N)NC/C=C/CN*
Numeric only. Scale: h

Here is how some molecules turned out for half-life.
| MOLECULE | UNITS TEXT | half-life |
| --- | --- | --- |
| CC(=O)NN(CC(=O)N[C@@H](CC(C)C)C(=O)N[C@@H](CC(C)C)C(=O)N[C@@H](CC(C)C)C(=O)N[C@@H](CCCNC(=N)N)C(=O)N[C@H](C(=O)N[C@@H](CCCCN)C(=O)NC/C=C/CNC(=N)N)C(C)C)CC(C)C [[Azaβ3L]^P8-ML-[ΔR-CO2]^P1, Ac-[Azaβ3L]LLLRVKR-[ΔR-COO]] (Ac-[X1]LLLRVK-X2) | h | 5.67 |
| CC(=O)N[C@@H](CC(C)C)C(=O)N[C@@H](CC(C)C)C(=O)N[C@@H](CC(C)C)C(=O)N[C@@H](CC(C)C)C(=O)N[C@@H](CCCNC(=N)N)C(=O)N[C@H](C(=O)N[C@@H](CCCCN)C(=O)NN(CCCNC(=N)N)CC(N)=O)C(C)C [ML[Azaβ3R]^P1, Ac-LLLLRVK[Azaβ3R]-NH2] (Ac-LLLLRVK-X4) | h | 5.39 |

### Prompt Would you mind telling me what half-life value was observed for CC(=O)N[C@@H](CC(C)C)C(=O)N[C@@H](CC(C)C)c1cn([C@@H](CC(C)C)C(=O)N[C@@H](CC(C)C)C(=O)N[C@@H](CCCNC(=N)N)C(=O)N[C@H](C(=O)N[C@@H](CCCCN)C(=O)N[C@@H](CCCNC(=N)N)C(N)=O)C(C)C)nn1 [ML[click]^P7-P6, Ac-LL[click]LLRVKR-NH2] (Ac-L[X3]LRVKR-NH2) ?
### Response 1

### Prompt Would you mind telling me what half-life value was observed for CC(=O)N[C@H](CC(C)C)C(=O)N[C@@H](CC(C)C)C(=O)N[C@@H](CC(C)C)C(=O)N[C@@H](CC(C)C)C(=O)N[C@@H](CCCNC(=N)N)C(=O)N[C@H](C(=O)N[C@@H](CCCCN)C(=O)NCc1ccc(C(=N)N)cc1)C(C)C [[D-Leu]^P8-ML-[AMBA]^P1, Ac-[D-Leu]-LLLRVK-[AMBA]] (Ac-[dL]LLLRVK-{NH(4-amidinobenzyl)}) ?
### Response 11.3

### Prompt Would you mind telling me what half-life value was observed for CC(=O)N[C@@H](CC(C)C)c1cn([C@@H](CC(C)C)C(=O)N[C@@H](CC(C)C)C(=O)N[C@@H](CC(C)C)C(=O)N[C@@H](CCCNC(=N)N)C(=O)N[C@H](C(=O)N[C@@H](CCCCN)C(=O)N[C@@H](CCCNC(=N)N)C(N)=O)C(C)C)nn1 [ML[click]^P8-P7, Ac-L[click]LLLRVKR-NH2] (Ac-[X3]LLRVKR-NH2) ?
### Response 4

### Prompt Would you mind telling me what half-life value was observed for CC(=O)NN(CC(=O)N[C@@H](CC(C)C)C(=O)N[C@@H](CC(C)C)C(=O)N[C@@H](CC(C)C)C(=O)N[C@@H](CCCNC(=N)N)C(=O)N[C@H](C(=O)N[C@@H](CCCCN)C(=O)N[C@@H](CCCNC(=N)N)C(N)=O)C(C)C)CC(C)C [ML[Azaβ3L]^P8] ?
### Response 2.5

---

Consider the following substances and their measured remaining at 48 h readings.
Experiment: Stability following incubation with DU145 cells
Type: in vitro ADME, human
Details: human, DU145 cells, Table 1, read-out: Stability (% remaining after 48 h)
Answer as a quantity: numeral, then unit.

| SUBSTANCE | RESULT |
| --- | --- |
| Ac-LLLSRVKR-NH2 [ML[Ser]-P5, Ac-LLLSRVKR-NH2] | 88% |

Let's switch to this substance now.
### Prompt Would you mind telling me what remaining at 48 h value was observed for Ac-LLLLRVKR-NH2 [Multi-Leu (ML), Ac-LLLLRVKR-NH2, reference compound] ?
### Response 56%
